measuredTarget: Muscarinic acetylcholine receptor M1 (Homo sapiens) (UniProt P11229)
Sequence (P11229 whole entry, looked up): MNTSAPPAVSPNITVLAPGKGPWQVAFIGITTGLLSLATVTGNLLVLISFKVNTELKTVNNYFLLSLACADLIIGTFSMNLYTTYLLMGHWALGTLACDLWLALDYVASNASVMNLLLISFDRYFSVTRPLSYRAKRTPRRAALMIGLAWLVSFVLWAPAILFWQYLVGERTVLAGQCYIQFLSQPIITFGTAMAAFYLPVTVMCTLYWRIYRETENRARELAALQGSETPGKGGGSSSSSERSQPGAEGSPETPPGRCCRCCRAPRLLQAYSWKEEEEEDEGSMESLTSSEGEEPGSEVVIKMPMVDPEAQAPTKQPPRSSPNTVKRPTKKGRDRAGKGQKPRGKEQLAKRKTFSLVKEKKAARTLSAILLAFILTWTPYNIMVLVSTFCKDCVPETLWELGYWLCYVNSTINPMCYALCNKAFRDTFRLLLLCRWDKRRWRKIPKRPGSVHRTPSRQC
assayInfo: CHRM1 blockers of acetylcholine calcium response – CHO-K1 cells, Fluo-8 calcium fluorescence, 1536-well, primary screen (AID 588852);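 also: peak over basal fluorescence ratio during 140 s after agonist addition; 0% = ACh EC80 plus DMSO and 100% = DMSO alone without agonist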
experimentalConditions: CHO-K1 hM1, Fluo-8 calcium fluorescence, ACh EC80 antagonist; at 3 µM; hits give high values
The campaign covered roughly 360,000 compounds. About 4,600 (1.3%) were called active. The entries come from a sample that favours actives as a whole.
assayReadout: inhibition (%)

molecule: COc1ccc(-c2cc(NC=O)c3ncc(-c4ccccc4)n3c2)cc1OC
measuredTarget: Muscarinic acetylcholine receptor M1 (Homo sapiens) (UniProt P11229)
assayReadout: inhibition
uom: %
measValue: 4.7

molecule: Fc1cccc2ncnc(OCc3ccccc3)c12
measuredTarget: Muscarinic acetylcholine receptor M1 (Homo sapiens) (UniProt P11229)
assayReadout: inhibition
uom: %
measValue: -13.7

molecule: CN1OC[C@@H]2CN(S(=O)(=O)c3cccc4ccccc34)[C@H](c3ccc(N4CCCCC4)cc3)C[C@@H]21
measuredTarget: Muscarinic acetylcholine receptor M1 (Homo sapiens) (UniProt P11229)
assayReadout: inhibition
uom: %
measValue: 5.74

molecule: Cc1nccn1-c1ccc(NC(=O)[C@H]2O[C@@H](n3cnc4c(N)ncnc43)[C@H](O)[C@@H]2O)cc1
measuredTarget: Muscarinic acetylcholine receptor M1 (Homo sapiens) (UniProt P11229)
assayReadout: inhibition
uom: %
measValue: -16.5

molecule: COc1ccc2cc(C(=O)NCC3CCCO3)[nH]c2c1 (centres undefined)
measuredTarget: Muscarinic acetylcholine receptor M1 (Homo sapiens) (UniProt P11229)
assayReadout: inhibition
uom: %
measValue: -11.4

molecule: COc1cccc(CNn2cn[nH]c2=S)c1OCc1ccccc1
measuredTarget: Muscarinic acetylcholine receptor M1 (Homo sapiens) (UniProt P11229)
assayReadout: inhibition
uom: %
measValue: -12.7

molecule: Cc1ccccc1NC(=O)CSC1=NCCN1
measuredTarget: Muscarinic acetylcholine receptor M1 (Homo sapiens) (UniProt P11229)
assayReadout: inhibition
uom: %
measValue: -2.31

molecule: COc1ccc(C(=O)NC2CCCc3c2cnn3-c2cccc(C)c2C)c(OC)n1 (centres undefined)
measuredTarget: Muscarinic acetylcholine receptor M1 (Homo sapiens) (UniProt P11229)
assayReadout: inhibition
uom: %
measValue: 46.9

molecule: Cc1nc2ccccc2cc1OCc1ccc(F)cc1
measuredTarget: Muscarinic acetylcholine receptor M1 (Homo sapiens) (UniProt P11229)
assayReadout: inhibition
uom: %
measValue: 18

molecule: CC1(C(=O)NS(=O)(=O)c2ccccc2)CCN1C(=O)Cc1ccc(-c2ccccc2)cc1 (centres undefined)
measuredTarget: Muscarinic acetylcholine receptor M1 (Homo sapiens) (UniProt P11229)
assayReadout: inhibition
uom: %
measValue: -13

molecule: Cc1cc(C)n2nc(C(=O)OCC(=O)N(CCC#N)c3ccc(F)cc3)nc2n1
measuredTarget: Muscarinic acetylcholine receptor M1 (Homo sapiens) (UniProt P11229)
assayReadout: inhibition
uom: %
measValue: -14.2

molecule: S=C(Nc1ccccc1)Nc1ccc2ccccc2c1
measuredTarget: Muscarinic acetylcholine receptor M1 (Homo sapiens) (UniProt P11229)
assayReadout: inhibition
uom: %
measValue: -3.01

molecule: CCn1cc(-c2cc(C(=O)O)on2)c(C)n1
measuredTarget: Muscarinic acetylcholine receptor M1 (Homo sapiens) (UniProt P11229)
assayReadout: inhibition
uom: %
measValue: -5.04

molecule: Cc1cc(=O)oc2c3c(cc(OCC(=O)NCC(O)c4ccccc4)c12)OC(C)(C)CC3 (centres undefined)
measuredTarget: Muscarinic acetylcholine receptor M1 (Homo sapiens) (UniProt P11229)
assayReadout: inhibition
uom: %
measValue: -9.2

molecule: COc1ccc(CC(=O)Nc2nc(-c3ccc(F)c(F)c3)cs2)cc1OC
measuredTarget: Muscarinic acetylcholine receptor M1 (Homo sapiens) (UniProt P11229)
assayReadout: inhibition
uom: %
measValue: 37.2

molecule: CSCCC(NC(=O)c1ccccc1)C(=O)N1CCCCCCC1 (centres undefined)
measuredTarget: Muscarinic acetylcholine receptor M1 (Homo sapiens) (UniProt P11229)
assayReadout: inhibition
uom: %
measValue: -10.3

molecule: O=C(NCCCO)c1cc2c([nH]c3ccccc32)c(-c2ccc(F)cc2)n1
measuredTarget: Muscarinic acetylcholine receptor M1 (Homo sapiens) (UniProt P11229)
assayReadout: inhibition
uom: %
measValue: 1.06

molecule: COc1ccc(-c2csc(Nc3cccc(C)n3)n2)cc1OC
measuredTarget: Muscarinic acetylcholine receptor M1 (Homo sapiens) (UniProt P11229)
assayReadout: inhibition
uom: %
measValue: -13.9

molecule: CC(C)C(c1nnnn1C(C)(C)C)N1CCN(Cc2cccnc2)CC1 (centres undefined)
measuredTarget: Muscarinic acetylcholine receptor M1 (Homo sapiens) (UniProt P11229)
assayReadout: inhibition
uom: %
measValue: -13.5

molecule: CC(C)C(NC(=O)c1c(F)cccc1F)C(=O)NNC(=O)c1ccccc1 (centres undefined)
measuredTarget: Muscarinic acetylcholine receptor M1 (Homo sapiens) (UniProt P11229)
assayReadout: inhibition
uom: %
measValue: 7.65

molecule: O=C(NCC1CCCO1)c1cc2c([nH]c3ccccc32)c(-c2ccc(F)cc2)n1 (centres undefined)
measuredTarget: Muscarinic acetylcholine receptor M1 (Homo sapiens) (UniProt P11229)
assayReadout: inhibition
uom: %
measValue: 42.6

molecule: CC(C)CCNC(=O)c1[nH]c(C(F)(F)F)nc1-c1ccccc1
measuredTarget: Muscarinic acetylcholine receptor M1 (Homo sapiens) (UniProt P11229)
assayReadout: inhibition
uom: %
measValue: -26.6

molecule: CC(=O)c1nn(-c2ccccc2)c(=Nc2ccccc2)cc1C
measuredTarget: Muscarinic acetylcholine receptor M1 (Homo sapiens) (UniProt P11229)
assayReadout: inhibition
uom: %
measValue: 2.25

molecule: CCc1nc2ccc(C(=O)N3CCN(S(=O)(=O)CC)CC3)cn2c1N(C=O)CCC(C)C
measuredTarget: Muscarinic acetylcholine receptor M1 (Homo sapiens) (UniProt P11229)
assayReadout: inhibition
uom: %
measValue: -13.9

molecule: COc1cc(CC(=O)Nc2nc(-c3ccc(F)c(F)c3)cs2)cc(OC)c1OC
measuredTarget: Muscarinic acetylcholine receptor M1 (Homo sapiens) (UniProt P11229)
assayReadout: inhibition
uom: %
measValue: 32.3

molecule: CCN1CCC(O)(/C=C/c2ccc(C)cc2)C(C(=O)/C=C/c2ccc(C)cc2)C1 (centres undefined)
measuredTarget: Muscarinic acetylcholine receptor M1 (Homo sapiens) (UniProt P11229)
assayReadout: inhibition
uom: %
measValue: 5.04

molecule: CSc1nc(C)nc(C2CC2)c1C#N
measuredTarget: Muscarinic acetylcholine receptor M1 (Homo sapiens) (UniProt P11229)
assayReadout: inhibition
uom: %
measValue: -5.81

molecule: COc1ccc(OC)c(C(=O)NC2CCCc3c2cnn3-c2cc(C)cc(C)c2)c1 (centres undefined)
measuredTarget: Muscarinic acetylcholine receptor M1 (Homo sapiens) (UniProt P11229)
assayReadout: inhibition
uom: %
measValue: -5.27

molecule: COC(C)(C)[C@]12CC(O)(C(C)C)ON1[C@H]1CCCCC1N2O (some centres undefined)
measuredTarget: Muscarinic acetylcholine receptor M1 (Homo sapiens) (UniProt P11229)
assayReadout: inhibition
uom: %
measValue: 2.96

molecule: CCOc1ccc(CN(Cc2ccco2)C(c2cccs2)c2nnnn2C(C)(C)C)cc1 (centres undefined)
measuredTarget: Muscarinic acetylcholine receptor M1 (Homo sapiens) (UniProt P11229)
assayReadout: inhibition
uom: %
measValue: 18.8

molecule: COC(=O)c1ccc(NC(=O)CSc2nnc(CNc3ccc(OC)cc3)n2C)cc1
measuredTarget: Muscarinic acetylcholine receptor M1 (Homo sapiens) (UniProt P11229)
assayReadout: inhibition
uom: %
measValue: 64.6

molecule: Cc1occc(=O)c1OCc1ccc(F)cc1
measuredTarget: Muscarinic acetylcholine receptor M1 (Homo sapiens) (UniProt P11229)
assayReadout: inhibition
uom: %
measValue: -6.78

molecule: Cc1nn(CCCC(=O)NCc2ccccc2Cl)c(=O)c2nccn12
measuredTarget: Muscarinic acetylcholine receptor M1 (Homo sapiens) (UniProt P11229)
assayReadout: inhibition
uom: %
measValue: -19.9

molecule: CCn1c(CNC(=O)c2cc(OC)c(OC)c(OC)c2)cc2cc(C)ccc21
measuredTarget: Muscarinic acetylcholine receptor M1 (Homo sapiens) (UniProt P11229)
assayReadout: inhibition
uom: %
measValue: 47.9

molecule: CC(C)CN1CCC1(C)C(=O)Nc1ccc(OC(F)F)cc1 (centres undefined)
measuredTarget: Muscarinic acetylcholine receptor M1 (Homo sapiens) (UniProt P11229)
assayReadout: inhibition
uom: %
measValue: 1.99

molecule: CN1OC[C@@H]2CN(C(=O)C(C)(C)C)[C@H](c3ccc(-n4ccnc4)cc3)C[C@@H]21
measuredTarget: Muscarinic acetylcholine receptor M1 (Homo sapiens) (UniProt P11229)
assayReadout: inhibition
uom: %
measValue: 13.8

molecule: COc1ccc(CCNC(=O)COC(=O)Cc2cc(OC)c(OC)c(OC)c2)cc1
measuredTarget: Muscarinic acetylcholine receptor M1 (Homo sapiens) (UniProt P11229)
assayReadout: inhibition
uom: %
measValue: -5.89

molecule: Cc1ccc(SCC(=O)N2CCN(c3ccc(F)cc3)CC2)cc1
measuredTarget: Muscarinic acetylcholine receptor M1 (Homo sapiens) (UniProt P11229)
assayReadout: inhibition
uom: %
measValue: 1.11

molecule: CC(C)(C)n1nnnc1C(c1cccs1)N(Cc1cccnc1)CC1CCCO1 (centres undefined)
measuredTarget: Muscarinic acetylcholine receptor M1 (Homo sapiens) (UniProt P11229)
assayReadout: inhibition
uom: %
measValue: 79.4

molecule: FC(F)(F)Oc1ccc(-c2cn3cccnc3n2)cc1
measuredTarget: Muscarinic acetylcholine receptor M1 (Homo sapiens) (UniProt P11229)
assayReadout: inhibition
uom: %
measValue: 12.5

molecule: C=CCOC(=O)C1=C[C@@H](c2ccc3c(c2)OCO3)C[C@@H](OCCCCO)O1
measuredTarget: Muscarinic acetylcholine receptor M1 (Homo sapiens) (UniProt P11229)
assayReadout: inhibition
uom: %
measValue: -1.17

molecule: Cc1cc2c(cc1C)N(C(=O)CN1C(=O)c3ccccc3C1=O)C(C)(C)c1ssc(=S)c1-2
measuredTarget: Muscarinic acetylcholine receptor M1 (Homo sapiens) (UniProt P11229)
assayReadout: inhibition
uom: %
measValue: 9.39

molecule: COc1ccccc1C(=O)NC(CCSC)C(=O)N1CCN(C(C)=O)CC1 (centres undefined)
measuredTarget: Muscarinic acetylcholine receptor M1 (Homo sapiens) (UniProt P11229)
assayReadout: inhibition
uom: %
measValue: -18.2

molecule: Cn1cc(CN2CCCCC2c2ccccn2)c(-c2ccc3c(c2)OCCO3)n1 (centres undefined)
measuredTarget: Muscarinic acetylcholine receptor M1 (Homo sapiens) (UniProt P11229)
assayReadout: inhibition
uom: %
measValue: -3.05
